System: CAL-85-1
Protocol notes: normalised response (% of control), CellTiter-Glo; higher = more viable cells (100 = DMSO, 0 = benzethonium chloride kill control)
Condition set: incubation time: 72 h
Measured endpoint: normalised response (%)
Number only, in %; omit the unit.

O=c1[nH]c(=O)n([C@H]2C[C@H](O)[C@@H](CO)O2)cc1F [Floxuridine] (10 nM); 104

Would you mind telling me what normalised response value was observed for COc1c(C)cnc(Cn2cnc3c(Cl)nc(N)nc32)c1C [BIIB021] (1000 nM) ?
26.9

---

System: HCC1599
Protocol notes: normalised response (% of control), CellTiter-Glo; higher = more viable cells (100 = DMSO, 0 = benzethonium chloride kill control)
Condition set: incubation time: 72 h
Measured endpoint: normalised response (%)
Number only, in %; omit the unit.

C[C@@H]1C=C2C(=O)O[C@@H]3CC[C@H](C1)[C@]23O [Galiellalactone] (5000 nM); 98.4
O=c1[nH]cc(F)c(=O)[nH]1 [Fluorouracil] (10 nM); 99.3
COc1ncc(-c2ccc3nccc(-c4ccnnc4)c3c2)cc1NS(=O)(=O)c1ccc(F)cc1F (0.1 nM); 92.1
COc1cc(Nc2ncc(F)c(Nc3ccc4c(n3)NC(=O)C(C)(C)O4)n2)cc(OC)c1OC [Tamatinib] (1000 nM); 106
CS(=O)(=O)CCNCc1ccc(-c2ccc3ncnc(Nc4ccc(OCc5cccc(F)c5)c(Cl)c4)c3c2)o1 [Lapatinib] (0.1 nM); 90.2

Would you mind telling me what normalised response value was observed for COc1cc(Nc2ncc(F)c(Nc3ccc4c(n3)NC(=O)C(C)(C)O4)n2)cc(OC)c1OC [Tamatinib] (1 nM) ?
114

Would you mind telling me what normalised response value was observed for Nc1nccc(-c2c(-c3ccc(F)cc3)ncn2C2CCCCC2)n1 (10 nM) ?
86.8

Would you mind telling me what normalised response value was observed for CN(c1ccccc1CNc1nc(Nc2ccc3c(c2)CC(=O)N3)ncc1C(F)(F)F)S(C)(=O)=O (1000 nM) ?
107

---

Test system: MFM-223
Protocol notes: normalised response (% of control), CellTiter-Glo; higher = more viable cells (100 = DMSO, 0 = benzethonium chloride kill control)
Condition set: incubation time: 72 h
Consider the following compounds and their measured normalised response readings.
Number only, in %; omit the unit.

# count of solved cases: 3
CS(=O)(=O)CCNCc1ccc(-c2ccc3ncnc(Nc4ccc(OCc5cccc(F)c5)c(Cl)c4)c3c2)o1 [Lapatinib] (1 nM); 107
COC1=CC(c2cc3ccccc3[nH]2)=N/C1=C\c1[nH]c(C)cc1C [Obatoclax] (1000 nM); 93.7
COc1c(C)cnc(Cn2cnc3c(Cl)nc(N)nc32)c1C [BIIB021] (10 nM); 102

Would you mind telling me what normalised response value was observed for CS(=O)(=O)OCCCCOS(C)(=O)=O [Busulfan] (10 nM) ?
102

Would you mind telling me what normalised response value was observed for FC(F)c1nc2ccccc2n1-c1nc(N2CCOCC2)nc(N2CCOCC2)n1 [ZSTK474] (1 nM) ?
99

Would you mind telling me what normalised response value was observed for CCS(=O)(=O)c1cccc(-c2cc(C(=O)NC3CCN(C)CC3)c(C)c3[nH]c4ncc(C)cc4c23)c1 [TAK-901] (100 nM) ?
79.5

Would you mind telling me what normalised response value was observed for CCCC(CCC)C(=O)O [Valproic acid] (100000 nM) ?
99.2

---

Tested on: CAL-51
Protocol notes: normalised response (% of control), CellTiter-Glo; higher = more viable cells (100 = DMSO, 0 = benzethonium chloride kill control)
Condition set: incubation time: 72 h
Hi, to clarify the labels: Y covers normalised response from 90% upward, N covers anything below 90%.

Threshold query (normalised response >= 90%) on O=c1[nH]c(=O)n([C@H]2C[C@H](O)[C@@H](CO)O2)cc1F [Floxuridine] (1 nM)
Y

Threshold query (normalised response >= 90%) on C[C@@H]1CCN(C(=O)CC#N)C[C@@H]1N(C)c1ncnc2[nH]ccc12 [Tofacitinib] (500 nM)
N

Threshold query (normalised response >= 90%) on COc1c(C)cnc(Cn2cnc3c(Cl)nc(N)nc32)c1C [BIIB021] (1 nM)
N

Threshold query (normalised response >= 90%) on CC(=O)O[C@H]1C(=O)[C@@]2(C)[C@H]([C@H](OC(=O)c3ccccc3)[C@]3(O)C[C@H](OC(=O)[C@H](O)[C@@H](NC(=O)c4ccccc4)c4ccccc4)C(C)=C1C3(C)C)[C@]1(OC(C)=O)CO[C@@H]1C[C@@H]2O [Paclitaxel] (1 nM)
Y

Threshold query (normalised response >= 90%) on COc1ccc(C2=N[C@@H](c3ccc(Cl)cc3)[C@@H](c3ccc(Cl)cc3)N2C(=O)N2CCNC(=O)C2)c(OC(C)C)c1 [Nutlin-3] (10 nM)
N

Threshold query (normalised response >= 90%) on COc1cc(Nc2ncc(F)c(Nc3ccc4c(n3)NC(=O)C(C)(C)O4)n2)cc(OC)c1OC [Tamatinib] (1 nM)
Y

---

System: SK-BR-3
Protocol notes: normalised response (% of control), CellTiter-Glo; higher = more viable cells (100 = DMSO, 0 = benzethonium chloride kill control)
Condition set: incubation time: 72 h
Consider the following compounds and their measured normalised response readings.
Number only, in %; omit the unit.

# count of solved cases: 2
COc1cccc2c1C(=O)c1c(O)c3c(c(O)c1C2=O)C[C@@](O)(C(C)=O)C[C@@H]3O[C@H]1C[C@H](N)[C@H](O)[C@H](C)O1 [Daunorubicin] (100 nM); 91.9
Cc1cc(C(C)Nc2ccccc2)c2nc(N3CCOCC3)cc(=O)n2c1 (stereo not drawn) [TGX-221] (1000 nM); 91.7

Read the next record carefully.
Would you mind telling me what normalised response value was observed for CC(=O)O[C@H]1C(=O)[C@@]2(C)[C@H]([C@H](OC(=O)c3ccccc3)[C@]3(O)C[C@H](OC(=O)[C@H](O)[C@@H](NC(=O)c4ccccc4)c4ccccc4)C(C)=C1C3(C)C)[C@]1(OC(C)=O)CO[C@@H]1C[C@@H]2O [Paclitaxel] (0.1 nM) ?
88.4

---

Tested on: MDA-MB-468
Protocol notes: normalised response (% of control), CellTiter-Glo; higher = more viable cells (100 = DMSO, 0 = benzethonium chloride kill control)
Condition set: incubation time: 72 h
Consider the following compounds and their measured normalised response readings.
Number only, in %; omit the unit.

# count of solved cases: 5
O=c1[nH]c(=O)n([C@H]2C[C@H](O)[C@@H](CO)O2)cc1F [Floxuridine] (1000 nM); 69.4
CC(C)C[C@H](NC(=O)[C@H](Cc1ccccc1)NC(=O)c1cnccn1)B(O)O [Bortezomib] (100 nM); 0.63
FC(F)c1nc2ccccc2n1-c1nc(N2CCOCC2)nc(N2CCOCC2)n1 [ZSTK474] (1000 nM); 58.3
Cc1cc(C(C)Nc2ccccc2)c2nc(N3CCOCC3)cc(=O)n2c1 (stereo unspecified) [TGX-221] (1 nM); 92.8
CS(=O)(=O)OCCCCOS(C)(=O)=O [Busulfan] (10 nM); 97.3

Would you mind telling me what normalised response value was observed for CS(=O)(=O)CCNCc1ccc(-c2ccc3ncnc(Nc4ccc(OCc5cccc(F)c5)c(Cl)c4)c3c2)o1 [Lapatinib] (0.1 nM) ?
112

---

System: MDA-MB-231
Protocol notes: normalised response (% of control), CellTiter-Glo; higher = more viable cells (100 = DMSO, 0 = benzethonium chloride kill control)
Condition set: incubation time: 72 h
Consider the following molecules and their measured normalised response readings.
Number only, in %; omit the unit.

COC1=CC(c2cc3ccccc3[nH]2)=N/C1=C\c1[nH]c(C)cc1C [Obatoclax] (1 nM); 96.6
Cc1cc(C(C)Nc2ccccc2)c2nc(N3CCOCC3)cc(=O)n2c1 (centres undefined) [TGX-221] (1000 nM); 89.7

Would you mind telling me what normalised response value was observed for CC(C)(C)c1cc(NC(=O)Nc2ccc(-c3cn4c(n3)sc3cc(OCCN5CCOCC5)ccc34)cc2)no1 [Quizartinib] (100 nM) ?
108

Would you mind telling me what normalised response value was observed for CCOc1cc2ncc(C#N)c(Nc3ccc(OCc4ccccn4)c(Cl)c3)c2cc1NC(=O)/C=C/CN(C)C [Neratinib] (0.1 nM) ?
98.3

Would you mind telling me what normalised response value was observed for CC(C)C[C@H](NC(=O)[C@H](Cc1ccccc1)NC(=O)c1cnccn1)B(O)O [Bortezomib] (1 nM) ?
104

Would you mind telling me what normalised response value was observed for Cn1c(=O)c(F)c(Nc2ccc(I)cc2F)c2c(=O)n(C[C@@H](O)CO)cnc21 [TAK-733] (0.1 nM) ?
105

Would you mind telling me what normalised response value was observed for COc1c(C)cnc(Cn2cnc3c(Cl)nc(N)nc32)c1C [BIIB021] (1 nM) ?
112
